TARGET OF ASSAY: MutL WT (Escherichia coli, UniProt P23367 1-615)
ASSAY OVERVIEW: fluorescence anisotropy; AMPPNP (3 mM; Fig 3C legend 1 mM); FA: 20 mM HEPES pH 7.5, 150 mM NaCl, 5 mM MgCl2, 0.08% Tween 20, 20% glycerol, 2 mM DTT, 5 nM DNA, 25 C; BLI: 25 mM HEPES pH 7.5, 150 mM NaCl, 5 mM MgCl2, 2 mM
EXPERIMENTAL CONDITIONS: protein: recombinant; (HisTrap purified); chain copies: 2; label: 5'-FAM on primer S8; 15 bp duplex, 5' overhang 16 nt on template (recessed primer 3' end)
QUANTITY MEASURED: pKd
Please report pKd as the negative decimal logarithm of the molar concentration, giving only the number.

q: Recorded pKd of 3' resected primer/template junction (dsDNA) DNA 1: AAGTGTCTGTCGTTTTAAGGACGAAGGACTC DNA 2: GAGTCCTTCGTCCTT , please.
a: 6.54
